measured.target: purified Human plasma kallikrein (Homo sapiens (Human), UniProt P03952)
Sequence (P03952 391-638): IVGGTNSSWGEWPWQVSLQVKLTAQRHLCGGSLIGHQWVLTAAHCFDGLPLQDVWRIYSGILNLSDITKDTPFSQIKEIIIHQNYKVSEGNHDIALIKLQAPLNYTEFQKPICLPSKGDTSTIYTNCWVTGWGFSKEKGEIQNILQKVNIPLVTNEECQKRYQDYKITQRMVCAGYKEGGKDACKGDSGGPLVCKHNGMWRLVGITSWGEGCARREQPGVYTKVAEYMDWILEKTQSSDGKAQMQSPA
Sequence (P03952 20-390 partner): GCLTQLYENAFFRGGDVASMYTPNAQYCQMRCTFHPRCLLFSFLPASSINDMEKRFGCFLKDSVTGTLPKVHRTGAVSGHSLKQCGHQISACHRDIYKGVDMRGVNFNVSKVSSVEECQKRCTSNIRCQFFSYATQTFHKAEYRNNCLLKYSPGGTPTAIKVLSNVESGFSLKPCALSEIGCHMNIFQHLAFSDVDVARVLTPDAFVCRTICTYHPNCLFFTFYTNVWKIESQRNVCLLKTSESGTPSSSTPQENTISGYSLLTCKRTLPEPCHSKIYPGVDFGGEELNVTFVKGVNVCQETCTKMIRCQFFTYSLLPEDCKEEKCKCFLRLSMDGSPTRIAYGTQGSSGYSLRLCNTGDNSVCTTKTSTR
assay.protocol: Kallikrein Assay
Assay type: biochemical
experimental.endpoint: pIC50
Please express pIC50 as -log10 of the molar concentration.

Reported pIC50 ( O=C(CF)N1CCC(c2cccc([C@H](Cc3ccccc3)c3ccc(-c4cc(Cl)ccc4-n4cnnn4)c[n+]3[O-])c2)CC1 [Example 38] ) = 6.49

====

measured.target: purified human Factor XIa (Homo sapiens (Human), UniProt P03951)
Sequence (P03951 388-625): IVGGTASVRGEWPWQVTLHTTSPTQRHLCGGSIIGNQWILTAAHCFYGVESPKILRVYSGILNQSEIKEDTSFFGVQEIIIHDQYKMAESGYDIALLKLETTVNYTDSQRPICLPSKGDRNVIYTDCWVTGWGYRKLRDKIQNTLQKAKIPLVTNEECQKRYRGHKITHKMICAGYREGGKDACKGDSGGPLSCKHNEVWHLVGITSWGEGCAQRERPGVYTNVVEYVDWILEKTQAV
Sequence (P03951 19-387 partner): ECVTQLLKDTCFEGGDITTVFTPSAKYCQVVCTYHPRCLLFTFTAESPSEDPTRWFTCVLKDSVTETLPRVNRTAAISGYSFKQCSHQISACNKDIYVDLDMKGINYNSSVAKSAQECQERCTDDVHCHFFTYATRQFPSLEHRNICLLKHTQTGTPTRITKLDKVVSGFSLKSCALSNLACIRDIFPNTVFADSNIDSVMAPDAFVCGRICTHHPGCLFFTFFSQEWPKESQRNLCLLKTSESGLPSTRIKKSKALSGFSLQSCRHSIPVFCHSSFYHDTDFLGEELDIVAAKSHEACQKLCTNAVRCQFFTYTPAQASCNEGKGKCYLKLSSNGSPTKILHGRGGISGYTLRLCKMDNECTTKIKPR
assay.protocol: Factor XIa Assay
Type: biochemical
experimental.endpoint: IC50 (µM)
Enter your answer as a number in µM; do not include the unit.

Reported IC50 ( `O=C(CF)N1CCC(c2cccc([C@H](Cc3ccccc3)c3ccc(-c4cc(Cl)ccc4-n4cnnn4)c[n+]3[O-])c2)CC1` ) = 0.0109
